Parameter: TGI. Scope: all listed entries.
system: DMS 114 small cell lung; assay: NCI tumour cell line growth inhibition, 48 h
Provide the reading as a plain figure in µM.

- COMPOUND: "CCN(CC)CCCC(C)NC(=O)c1ccc2c(c1)C(=O)c1ccccc1C2=O (configuration not stated)"
  READOUT NAME: "TGI"
  NUMBER: 20
- COMPOUND: "CC(C)C(=O)/C=C/c1ccc(Cl)c(Cl)c1"
  READOUT NAME: "TGI"
  NUMBER: 42.3
- COMPOUND: "C=C1C(=O)O[C@@H]2[C@H](O)[C@@H](C)[C@@H]3C=CC(=O)[C@@]3(C)[C@H](OC(=O)C=C(C)C)[C@H]12"
  READOUT NAME: "TGI"
  NUMBER: 6.57

Now for a further compound.
Fill blank: measured TGI of the compound COc1cc(/C=C(\OC(C)=O)c2ccc3c(c2)OCO3)cc(OC)c1OC is ____. 29

----------
test system: UO-31 renal; experiment: NCI tumour cell line growth inhibition, 48 h
READOUT NAME: TGI (µM)
Provide the reading as a plain figure in µM.

Fill blank: measured TGI of the compound CCOC(=O)Cn1c(=O)c2cc(-c3ccccc3)cc3c(Cl)nc4c(OC)c(OC)cc1c4c32 is ____. 43.8

Fill blank: measured TGI of the compound CCNCCCn1c2c(c3ccc([N+](=O)[O-])cc3c1=O)C(=O)c1cc(OC)cnc1-2 is ____. 0.176

----------
Parameter: TGI. Scope: all listed entries.
system: 786-0 renal; assay: NCI tumour cell line growth inhibition, 48 h

Worked examples follow.
- MOLECULE: "CC1(O)CCC2(C#N)CCC1C2O (configuration not stated)"
  RESULT: "> 100 µM"
- MOLECULE: "O=[N+]([O-])c1ccc(Cl)cc1N/N=C/c1cccc2cccnc12"
  RESULT: "> 100 µM"
- MOLECULE: "CCCN(CCSSCCNc1nc(N(C)O)nc(N(C)O)n1)c1nc(N(C)O)nc(N(C)O)n1"
  RESULT: "> 100 µM"
- MOLECULE: "CC1C(=O)O[C@H]2C1CC[C@@]1(C)[C@H](O)CC[C@@]13C[C@]2(O)OO3 (some centres not stated)"
  RESULT: "> 100 µM"
- MOLECULE: "CC1(CC2=C(C(=O)NCCO[Si](C)(C)C(C)(C)C)C3(OCCO3)C2=O)OCCO1"
  RESULT: "> 100 µM"
- MOLECULE: "COC(=O)c1cc(C(=CCC[C@H]2CC[C@@]3(C)C(CCC4C3CC[C@@]3(C)C4CC[C@@H]3C(C)CCCC(C)C)C2)c2cc(Cl)c(OC(=O)c3ccccc3)c(C(=O)OC)c2)cc(Cl)c1OC(=O)c1ccccc1 (some centres not stated)"
  RESULT: "> 10 µM"
- MOLECULE: "C=C1C(=O)O[C@H]2[C@H]1CC/C(Cn1cc(-c3cc(C)c(C)cc3C)nn1)=C\\CC[C@@]1(C)O[C@@H]21"
  RESULT: "3.18 µM"
- MOLECULE: "NC(CC1=CCC=CC1)C(=O)O (configuration not stated)"
  RESULT: "> 100 µM"
- MOLECULE: "CC(C)(C)c1ccc(C(C)(C)C)c(N2C(=O)C3ON=C(c4ccc([N+](=O)[O-])cc4)C3C2=O)c1 (configuration not stated)"
  RESULT: "9.71 µM"
- MOLECULE: "CCNCCCn1c2c(c3ccc([N+](=O)[O-])cc3c1=O)C(=O)c1cc(OC)cnc1-2"
  RESULT: "0.31 µM"

Fill blank: measured TGI of the molecule C/C(=N\N=C(N)N)C(CN(C)C)C(c1ccccc1)c1c(O)c2ccccc2oc1=O (configuration not stated) is ____. > 100 µM

Fill blank: measured TGI of the molecule CC/C=C/c1cc2cc[nH]c2c2c1C(C)C[C@@H]2C (some centres not stated) is ____. 36.4 µM
